- assay_details: nuclear p53 accumulation, HPV+ cells – imaging, p53-positive nuclei imaging, 24 h, 48 h (AID 1508601)
- test_settings: 24/48 h, measured here: cell number at 24 h, Library stock concentration: 3.33 mM
Screen size: about 5,700 compounds; about 85 (1%) were called active. The entries come from a sample that favours actives as a whole.
property_name: nuclei count, normalised (%)
API: value field is a number in %; no unit string.

Name the reported nuclei count, normalised value associated with the compound CC(NC(=O)C(Cc1ccccc1)NC(=O)OCc1ccccc1)C(=O)CF (stereo not drawn)
108

----------
- tgt: Cellular tumor antigen p53 (Homo sapiens) (UniProt P04637)
- Sequence (P04637 whole entry, looked up): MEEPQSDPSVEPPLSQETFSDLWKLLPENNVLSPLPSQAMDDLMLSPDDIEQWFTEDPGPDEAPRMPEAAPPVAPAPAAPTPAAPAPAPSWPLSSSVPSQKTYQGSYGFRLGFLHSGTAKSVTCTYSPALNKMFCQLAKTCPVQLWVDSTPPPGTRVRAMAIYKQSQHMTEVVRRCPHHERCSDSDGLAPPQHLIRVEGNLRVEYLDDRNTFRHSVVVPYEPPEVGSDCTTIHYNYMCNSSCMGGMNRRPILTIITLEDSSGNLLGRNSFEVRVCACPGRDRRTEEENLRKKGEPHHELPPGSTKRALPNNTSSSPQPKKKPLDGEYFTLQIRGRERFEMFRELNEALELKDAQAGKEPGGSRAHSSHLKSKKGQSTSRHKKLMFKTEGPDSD
- assay_details: nuclear p53 accumulation, HPV+ cells – imaging, p53-positive nuclei imaging, 24 h, 48 h (AID 1508601)
- test_settings: 24/48 h, Library stock concentration: 10 mM
The campaign covered roughly 5,700 compounds. About 85 (1%) were called active. Rule as the data show it: active = p53-positive nuclei above about 36% (passing the limit was not always enough); inactive = the rest. The sample as a whole holds a higher share of actives than the screen did.
Response enum: active, inactive

// below: answered molecules
CCCCN(Cc1ccc(C(=O)NO)cc1)C(=O)Nc1ccccc1 : inactive
Cc1cc(OCc2nnc(SC3CCCC3)n2-c2cccnc2)ccc1-c1ccc(S(C)(=O)=O)cc1 : active
CC1CCNC(=O)c2cc3ccc(C(=O)Nc4nc5ccccc5n4CCCN(C)C)cc3n21 (stereo not given) : inactive
CCOC(=O)c1sc(NC(=O)c2ccco2)c(SC#N)c1C : inactive
COc1cc(OC)c2c(=O)[nH]c(-c3cc(C)c(OCCO)c(C)c3)nc2c1 : inactive

Shifting focus to the molecule that follows.
How was O=Nc1c(-c2c(O)[nH]c3cc(Br)ccc23)[nH]c2ccccc12 classified in this test?
active
